- System: NOTCH1
- experimental.details: 3' UTR reporter interaction score (median-centred robust z-score of log2 firefly/Renilla activity); higher = less repression of the 3' UTR reporter
- condition.parameters: HEK293T; 48 h
3' UTR reporter interaction score below 0.4 gives 0.0; 3' UTR reporter interaction score at or above it gives 1.0.

Problem: Hello, I need to know if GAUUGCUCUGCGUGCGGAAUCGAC has measured 3' UTR reporter interaction score not below 0.4. Thanks!
Solution: 0.0

Problem: Hello, I need to know if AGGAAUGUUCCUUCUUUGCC has measured 3' UTR reporter interaction score not below 0.4. Thanks!
Solution: 0.0

Problem: Hello, I need to know if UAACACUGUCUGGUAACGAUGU has measured 3' UTR reporter interaction score not below 0.4. Thanks!
Solution: 0.0

Problem: Hello, I need to know if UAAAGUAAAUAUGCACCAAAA has measured 3' UTR reporter interaction score not below 0.4. Thanks!
Solution: 1.0

Problem: Hello, I need to know if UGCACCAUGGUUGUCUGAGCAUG has measured 3' UTR reporter interaction score not below 0.4. Thanks!
Solution: 0.0

Problem: Hello, I need to know if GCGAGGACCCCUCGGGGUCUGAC has measured 3' UTR reporter interaction score not below 0.4. Thanks!
Solution: 0.0

----------
- Test system: PHOX2B
- experimental.details: 3' UTR reporter interaction score (median-centred robust z-score of log2 firefly/Renilla activity); higher = less repression of the 3' UTR reporter
- condition.parameters: HEK293T; 48 h
Definition: the class of an entry is the range in band 1 (below -0.5), band 2 (-0.5 to below 0.4), band 3 (0.4 or more) that contains its 3' UTR reporter interaction score.

{"columns": ["entry.sequence", "category.label"],
 "data": [
  ["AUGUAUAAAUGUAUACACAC", "band 2"]
]}

Problem: Exercise: read the entry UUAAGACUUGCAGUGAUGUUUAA and state which class it falls under.
Solution: band 2

Problem: Exercise: read the entry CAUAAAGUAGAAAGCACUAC and state which class it falls under.
Solution: band 3

Problem: Exercise: read the entry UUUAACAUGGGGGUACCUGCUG and state which class it falls under.
Solution: band 1

Problem: Exercise: read the entry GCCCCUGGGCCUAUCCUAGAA and state which class it falls under.
Solution: band 2

Problem: Exercise: read the entry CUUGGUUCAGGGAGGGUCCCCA and state which class it falls under.
Solution: band 2

----------
Parameter: 3' UTR reporter interaction score. Scope: all listed entries.
- Tested on: BRCA2
- experimental.details: 3' UTR reporter interaction score (median-centred robust z-score of log2 firefly/Renilla activity); higher = less repression of the 3' UTR reporter
- condition.parameters: HEK293T; 48 h
Note: the reply should be a number with no unit written.

{"columns": ["entry.sequence", "target.under.test", "observed.value"],
 "data": [
  ["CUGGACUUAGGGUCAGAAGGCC", "BRCA2", -1.05],
  ["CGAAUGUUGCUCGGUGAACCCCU", "BRCA2", -0.821],
  ["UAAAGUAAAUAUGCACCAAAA", "BRCA2", -0.0915],
  ["UGUAAACAUCCUUGACUGGA", "BRCA2", 0.0901],
  ["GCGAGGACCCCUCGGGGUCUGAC", "BRCA2", 0.357]
]}

Problem: State measured 3' UTR reporter interaction score of the sequence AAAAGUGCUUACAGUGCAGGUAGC with BRCA2.
Solution: 0.703

Problem: State measured 3' UTR reporter interaction score of the sequence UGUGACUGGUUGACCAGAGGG with BRCA2.
Solution: 0.687

Problem: State measured 3' UTR reporter interaction score of the sequence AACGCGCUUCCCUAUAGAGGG with BRCA2.
Solution: 0.644

Problem: State measured 3' UTR reporter interaction score of the sequence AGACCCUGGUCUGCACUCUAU with BRCA2.
Solution: 0.647

Problem: State measured 3' UTR reporter interaction score of the sequence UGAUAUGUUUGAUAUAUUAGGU with BRCA2.
Solution: -2.64

Problem: State measured 3' UTR reporter interaction score of the sequence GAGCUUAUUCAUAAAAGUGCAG with BRCA2.
Solution: 0.117

Problem: State measured 3' UTR reporter interaction score of the sequence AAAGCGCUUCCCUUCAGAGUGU with BRCA2.
Solution: -0.304

Problem: State measured 3' UTR reporter interaction score of the sequence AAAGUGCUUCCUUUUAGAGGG with BRCA2.
Solution: -0.12

Problem: State measured 3' UTR reporter interaction score of the sequence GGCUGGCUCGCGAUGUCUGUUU with BRCA2.
Solution: -2.13
